target_desc: Dual 3',5'-cyclic-AMP and -GMP phosphodiesterase 11A (Homo sapiens) (UniProt Q9HCR9)
Sequence (Q9HCR9 whole entry, looked up): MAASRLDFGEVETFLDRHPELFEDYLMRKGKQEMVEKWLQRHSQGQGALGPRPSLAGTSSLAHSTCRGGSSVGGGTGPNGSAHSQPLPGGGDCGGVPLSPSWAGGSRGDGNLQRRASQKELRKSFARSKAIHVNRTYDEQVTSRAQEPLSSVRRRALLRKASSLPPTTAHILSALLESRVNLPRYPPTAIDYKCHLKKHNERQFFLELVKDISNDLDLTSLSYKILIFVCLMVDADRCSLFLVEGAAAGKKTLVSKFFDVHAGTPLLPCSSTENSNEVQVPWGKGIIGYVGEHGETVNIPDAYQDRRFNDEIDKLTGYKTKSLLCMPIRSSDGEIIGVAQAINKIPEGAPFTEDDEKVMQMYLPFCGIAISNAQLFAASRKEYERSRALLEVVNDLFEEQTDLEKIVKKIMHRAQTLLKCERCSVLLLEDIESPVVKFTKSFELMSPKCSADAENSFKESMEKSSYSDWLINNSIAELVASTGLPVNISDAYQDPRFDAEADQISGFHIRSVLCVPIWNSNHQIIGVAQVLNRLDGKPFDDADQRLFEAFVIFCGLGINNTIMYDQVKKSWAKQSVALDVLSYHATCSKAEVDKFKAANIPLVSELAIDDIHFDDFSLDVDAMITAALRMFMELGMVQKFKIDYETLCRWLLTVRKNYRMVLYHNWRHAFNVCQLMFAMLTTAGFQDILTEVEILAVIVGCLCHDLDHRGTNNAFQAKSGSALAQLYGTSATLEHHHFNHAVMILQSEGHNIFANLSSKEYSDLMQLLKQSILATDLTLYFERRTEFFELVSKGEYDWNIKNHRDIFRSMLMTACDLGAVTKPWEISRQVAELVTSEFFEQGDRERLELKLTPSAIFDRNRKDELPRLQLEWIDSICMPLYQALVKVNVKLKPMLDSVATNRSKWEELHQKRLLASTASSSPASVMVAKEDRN
assay_procedure: Inhibition of N-terminal GST-tagged human recombinant PDE11A assessed as substrate hydrolysis using [3H]cAMP as substrate at 1 uM after 30 mins by two-step radiometric assay
endpoint: inhibition (%)

- cpd_smiles: "Cn1c2ccccc2c2cc(CCOc3ncccc3-c3cncnc3)cnc21"
  inhibition [%]: 12.4
- cpd_smiles: "Cn1c2ccccc2c2cc(CCOc3nccnc3-c3ccncc3)cnc21"
  inhibition [%]: 21.7
- cpd_smiles: "Cn1c2ccccc2c2cc(CCOc3nccnc3-c3ccc(F)cc3)cnc21"
  inhibition [%]: 18.6
- cpd_smiles: "FC(F)n1c2ccccc2c2cc(CCOc3ncccc3-c3cncnc3)cnc21"
  inhibition [%]: 15.8
- cpd_smiles: "Cn1c2ccccc2c2cc(CCOc3ncccc3-c3ccncc3)cnc21"
  inhibition [%]: 17.4

###

target_desc: cAMP and cAMP-inhibited cGMP 3',5'-cyclic phosphodiesterase 10A (Homo sapiens, UniProt Q9Y233)
Sequence (Q9Y233 whole entry): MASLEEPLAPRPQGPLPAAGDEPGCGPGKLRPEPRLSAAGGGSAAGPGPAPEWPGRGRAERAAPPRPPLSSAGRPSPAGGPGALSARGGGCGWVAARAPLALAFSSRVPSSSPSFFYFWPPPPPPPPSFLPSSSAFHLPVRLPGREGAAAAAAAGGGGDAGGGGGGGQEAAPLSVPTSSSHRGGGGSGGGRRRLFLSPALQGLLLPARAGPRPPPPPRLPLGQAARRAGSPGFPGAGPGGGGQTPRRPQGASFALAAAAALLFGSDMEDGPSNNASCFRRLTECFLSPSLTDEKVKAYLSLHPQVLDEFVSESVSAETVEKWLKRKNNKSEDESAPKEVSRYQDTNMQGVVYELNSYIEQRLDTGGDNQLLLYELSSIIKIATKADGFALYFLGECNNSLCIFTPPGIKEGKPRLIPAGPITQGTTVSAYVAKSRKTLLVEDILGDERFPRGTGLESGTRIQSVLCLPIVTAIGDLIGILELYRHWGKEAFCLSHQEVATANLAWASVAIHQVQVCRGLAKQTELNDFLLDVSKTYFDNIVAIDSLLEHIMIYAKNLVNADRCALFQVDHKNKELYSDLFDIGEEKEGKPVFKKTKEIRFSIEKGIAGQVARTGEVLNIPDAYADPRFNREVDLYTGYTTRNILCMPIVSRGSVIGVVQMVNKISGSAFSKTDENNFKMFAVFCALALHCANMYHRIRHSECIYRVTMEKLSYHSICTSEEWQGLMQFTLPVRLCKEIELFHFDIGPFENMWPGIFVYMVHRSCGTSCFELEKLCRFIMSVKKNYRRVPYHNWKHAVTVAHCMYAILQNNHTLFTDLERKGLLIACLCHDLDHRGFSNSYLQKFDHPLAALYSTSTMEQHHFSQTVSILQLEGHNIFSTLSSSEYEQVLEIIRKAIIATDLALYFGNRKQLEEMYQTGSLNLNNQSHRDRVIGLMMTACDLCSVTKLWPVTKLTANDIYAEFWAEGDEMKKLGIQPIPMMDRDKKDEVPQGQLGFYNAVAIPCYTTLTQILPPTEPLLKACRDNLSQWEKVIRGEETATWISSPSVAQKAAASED
assay_procedure: Inhibition of N-terminal GST-tagged human recombinant PDE10A assessed as substrate hydrolysis using [3H]cAMP as substrate at 1 uM after 30 mins by two-step radiometric assay
endpoint: inhibition (%)

- cpd_smiles: "Cn1cc(COc2nccc(-c3ccc(F)cc3)n2)c2nc3ccccc3cc21"
  value_measured: 12.1
- cpd_smiles: "Cn1cc(COc2ncccc2-c2cncnc2)c2nc3ccccc3cc21"
  value_measured: 30.7
- cpd_smiles: "Cn1c2ccccc2c2cc(CCOc3nccnc3-c3cncnc3)cnc21"
  value_measured: 83.4
- cpd_smiles: "Cn1cc(CCOc2nccnc2-c2cncnc2)c2nc3ccccc3cc21"
  value_measured: 82.1
- cpd_smiles: "Cn1c2ccccc2c2cc(CCOc3ncccc3-c3ccncc3)cnc21"
  value_measured: 95.8
- cpd_smiles: "Cn1cc(COc2ncccc2-c2ccncc2)c2nc3ccccc3cc21"
  value_measured: 24.6
- cpd_smiles: "Cn1c2ccccc2c2cc(CCCOc3ncccc3-c3cccnc3F)cnc21"
  value_measured: 48.9
- cpd_smiles: "Cn1c2ccccc2c2cc(CCOc3ncccc3-c3ccc(Cl)cc3)cnc21"
  value_measured: 75.7

(I) Cn1c2ccccc2c2cc(CCOc3nccnc3-c3ccc(Cl)cc3)cnc21
(II) Cn1c2ccccc2c2cc(CCCOc3ncccc3-c3cncnc3)cnc21
Form: Entry with minimum inhibition (choose one): I / II Reply briefly: the label of your chosen item.
II
(II: 43.1%, I: 87.2%)

###

target_desc: cAMP and cAMP-inhibited cGMP 3',5'-cyclic phosphodiesterase 10A (Homo sapiens, UniProt Q9Y233)
assay_procedure: Inhibition of N-terminal GST-tagged human recombinant PDE10A assessed as substrate hydrolysis using [3H]cAMP as substrate at 1 uM after 30 mins by two-step radiometric assay
endpoint: inhibition (%)

- cpd_smiles: "FC(F)n1c2ccccc2c2cc(CCOc3ncccc3-c3cncnc3)cnc21"
  endpoint: "inhibition"
  value_measured: 96.3
- cpd_smiles: "Cn1c2ccccc2c2cc(COc3nccc(-c4cncnc4)n3)cnc21"
  endpoint: "inhibition"
  value_measured: 23.6

(1) Cn1c2ccccc2c2cc(CCOc3ncccc3-c3cncnc3)cnc21
(2) Cn1c2ccccc2c2cc(COc3nccc(-c4ccc(F)cc4)n3)cnc21
(3) Cn1c2ccccc2c2cc(C3(COc4ncccc4-c4cncnc4)CC3)cnc21
Returns the items ordered by inhibition, from maximum to minimum. Would you mind listing the labels in the order requested?
1, 3, 2
(1: 92.5%, 3: 54.7%, 2: 23.9%)
